Where these numbers come from: patent US10517867B2

Assay: In vitro metabolic stability in rat plasma
Type: in vitro ADME
Details: rat, plasma, 37° C., 10 μM compound, read-out: Rat plasma T1/2
Procedure: This example detects the metabolic stability of the compounds of the present disclosure in human (rat) plasma and intestinal S9 in vitro. […] The reaction was terminated, vortexed and mixed for 1 minute, centrifuged at 10000×g for 10 minutes in a 4° C. precooled high-speed centrifuge, and the supernatant was detected with HPLC. […]
propertyMeasured: half-life at 10 µM
Record the result as a number with its unit.

Input: Give its half-life at 10 µM value. Item: CC[C@@H]([C@H](C)O)n1ncn(-c2ccc(N3CCN(c4ccc(OC[C@@H]5CO[C@@](Cn6c[n+](C(C)OC(=O)N(C)c7ncccc7COC(=O)[C@@H](N)Cc7ccc(O)cc7)cn6)(c6ccc(F)cc6F)C5)cc4)CC3)cc2)c1=O (stereo partly drawn) [ST0027]
Output: 15.9 min

Input: I am curious: what half-life at 10 µM value has been reported for CC[C@@H]([C@H](C)O)n1ncn(-c2ccc(N3CCN(c4ccc(OC[C@@H]5CO[C@@](Cn6c[n+](C(C)OC(=O)N(C)c7ncccc7COC(=O)CN(C)C)cn6)(c6ccc(F)cc6F)C5)cc4)CC3)cc2)c1=O (stereo partly drawn) [ST0045] ?
Output: 11.9 min

Input: Need half-life at 10 µM of CC[C@@H]([C@H](C)O)n1ncn(-c2ccc(N3CCN(c4ccc(OC[C@@H]5CO[C@@](Cn6c[n+](C(C)OC(=O)N(C)c7ncccc7COC(=O)[C@@H](N)CC(N)=O)cn6)(c6ccc(F)cc6F)C5)cc4)CC3)cc2)c1=O (stereo partly drawn) [ST0023] , thanks.
Output: 0.55 min

Input: If you can, please state the reported half-life at 10 µM value of CC[C@@H]([C@H](C)OC(=O)OC(C)OC(=O)CCCCCOP(=O)([O-])[O-])n1ncn(-c2ccc(N3CCN(c4ccc(OC[C@@H]5CO[C@@](Cn6cncn6)(c6ccc(F)cc6F)C5)cc4)CC3)cc2)c1=O.[Na+].[Na+] (stereo partly drawn) [ST0063] .
Output: 1.21 min

Input: What does the record list as half-life at 10 µM for CC[C@@H](C(C)OC(=O)OC(C)OC(=O)CCCCCCOP(=O)([O-])[O-])n1ncn(-c2ccc(N3CCN(c4ccc(OC[C@@H]5CO[C@@](Cn6cncn6)(c6ccc(F)cc6F)C5)cc4)CC3)cc2)c1=O.[Na+].[Na+] (stereo partly drawn) [ST0070] ?
Output: 1.12 min

Input: Need half-life at 10 µM, item CC[C@@H]([C@H](C)O)n1ncn(-c2ccc(N3CCN(c4ccc(OC[C@@H]5CO[C@@](Cn6c[n+](C(C)OC(=O)N(C)c7ncccc7COC(=O)CN)cn6)(c6ccc(F)cc6F)C5)cc4)CC3)cc2)c1=O (stereo partly drawn) [ST0002]
Output: 1.12 min

Input: Could you share which half-life at 10 µM value was measured for CC[C@@H]([C@H](C)O)n1ncn(-c2ccc(N3CCN(c4ccc(OC[C@@H]5CO[C@@](Cn6c[n+](C(C)OC(=O)OCC[C@@H](N)C(=O)O)cn6)(c6ccc(F)cc6F)C5)cc4)CC3)cc2)c1=O.Cl.[Cl-] (stereo partly drawn) [ST0018] ?
Output: 11.5 min

Input: Look up half-life at 10 µM for this compound: CC[C@@H](C(C)OC(=O)OC(C)OC(=O)CCCCOS(=O)(=O)[O-])n1ncn(-c2ccc(N3CCN(c4ccc(OC[C@@H]5CO[C@@](Cn6cncn6)(c6ccc(F)cc6F)C5)cc4)CC3)cc2)c1=O.[Na+] (stereo partly drawn) [ST0078]
Output: 2.57 min

Input: Which half-life at 10 µM value belongs to CC[C@@H]([C@H](C)OC(=O)OCOC(=O)CCCCCOP(=O)([O-])[O-])n1ncn(-c2ccc(N3CCN(c4ccc(OC[C@@H]5CO[C@@](Cn6cncn6)(c6ccc(F)cc6F)C5)cc4)CC3)cc2)c1=O.[Na+].[Na+] [ST0073] ?
Output: 0.75 min
